- ASSAY PROCEDURE: Antiproliferative activity against human DU145 cells after 48 hrs by MTT assay
- Assay type: functional, cell-based
- CONDITION CONTEXT: DU-145, 48 h
REPORTED PROPERTY: pIC50
One number for each entry, as −log10 of the molar value.

COMPOUND	REPORTED PROPERTY	ENDPOINT VALUE
COc1ccc(/C=C2\CC(C(=O)Nc3cccc(N4CCN(C)CC4)c3)C/C(=C\c3ccc(OC)cc3)C2=O)cc1 (stereo not drawn)	pIC50	4.99

Now consider the entry below.
pIC50 recorded for this compound, CN1CCN(c2cccc(NC(=O)C3C/C(=C\c4ccc(F)cc4)C(=O)/C(=C/c4ccc(F)cc4)C3)c2)CC1 (stereo not drawn) , is 5.22

Origin of values: ChEMBL document CHEMBL3864166
